B1: Osa-1-4 twister ribozyme (parent)
chain: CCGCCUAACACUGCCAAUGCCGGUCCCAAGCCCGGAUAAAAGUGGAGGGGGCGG

variants of: B1; assay: self-cleavage, relative activity (ratio to wild type); higher = more cleavage; co-transcriptional
Listing of recorded self-cleavage by entry.
REPORTED_ENDPOINT: self-cleavage

variant_label="G34A G53A" data_value=0.49
variant_label="A28G G13A" data_value=0.05
variant_label="C15G C27G" data_value=0.1
variant_label="C15G G34A" data_value=0.27
variant_label="A8G U43G" data_value=0.15
variant_label="A46C C27U" data_value=0.04
variant_label="C25A C27G" data_value=0.03
variant_label="A46G G34U" data_value=0.05
variant_label="A38U C27A" data_value=0.14
variant_label="G19U G22C" data_value=0.05
variant_label="G51U U37G" data_value=0.4
variant_label="C26G C31U" data_value=0.06
variant_label="A36U G23U" data_value=0.18
variant_label="A10U A17U" data_value=0.08
variant_label="A8U C52U" data_value=0.57
variant_label="A8G C9G" data_value=0.2
variant_label="A10C G53C" data_value=0.02
variant_label="A40G C21G" data_value=0.08
variant_label="A38G C26U" data_value=0.85
variant_label="G45A G50U" data_value=0.13
variant_label="U12C U24A" data_value=0.05
variant_label="A16U A39U" data_value=0.87
variant_label="C32A G42A" data_value=0.06
variant_label="A8U C20G" data_value=0.06
variant_label="A7C C20A" data_value=0.06
variant_label="A36U U12G" data_value=0.64
variant_label="A17G G30A" data_value=0.05
variant_label="A10C G19U" data_value=0.03
variant_label="A7U G44U" data_value=0.09
variant_label="G54C U37A" data_value=0.71
variant_label="C11A G47C" data_value=0.05
variant_label="A28U G23A" data_value=0.14
variant_label="C20U C26U" data_value=0.92
variant_label="A8U C26U" data_value=0.12

This collection of values is drawn from the RNAGym collection of RNA variant scans (doi:10.1002/anie.201605470).
